assaySystem: FAK (Homo sapiens, UniProt Q05397)
Construct: endogenous in cells; host or cells: U87MG glioblastoma cells (ATCC HTB-14)
Sequence (Q05397 whole entry): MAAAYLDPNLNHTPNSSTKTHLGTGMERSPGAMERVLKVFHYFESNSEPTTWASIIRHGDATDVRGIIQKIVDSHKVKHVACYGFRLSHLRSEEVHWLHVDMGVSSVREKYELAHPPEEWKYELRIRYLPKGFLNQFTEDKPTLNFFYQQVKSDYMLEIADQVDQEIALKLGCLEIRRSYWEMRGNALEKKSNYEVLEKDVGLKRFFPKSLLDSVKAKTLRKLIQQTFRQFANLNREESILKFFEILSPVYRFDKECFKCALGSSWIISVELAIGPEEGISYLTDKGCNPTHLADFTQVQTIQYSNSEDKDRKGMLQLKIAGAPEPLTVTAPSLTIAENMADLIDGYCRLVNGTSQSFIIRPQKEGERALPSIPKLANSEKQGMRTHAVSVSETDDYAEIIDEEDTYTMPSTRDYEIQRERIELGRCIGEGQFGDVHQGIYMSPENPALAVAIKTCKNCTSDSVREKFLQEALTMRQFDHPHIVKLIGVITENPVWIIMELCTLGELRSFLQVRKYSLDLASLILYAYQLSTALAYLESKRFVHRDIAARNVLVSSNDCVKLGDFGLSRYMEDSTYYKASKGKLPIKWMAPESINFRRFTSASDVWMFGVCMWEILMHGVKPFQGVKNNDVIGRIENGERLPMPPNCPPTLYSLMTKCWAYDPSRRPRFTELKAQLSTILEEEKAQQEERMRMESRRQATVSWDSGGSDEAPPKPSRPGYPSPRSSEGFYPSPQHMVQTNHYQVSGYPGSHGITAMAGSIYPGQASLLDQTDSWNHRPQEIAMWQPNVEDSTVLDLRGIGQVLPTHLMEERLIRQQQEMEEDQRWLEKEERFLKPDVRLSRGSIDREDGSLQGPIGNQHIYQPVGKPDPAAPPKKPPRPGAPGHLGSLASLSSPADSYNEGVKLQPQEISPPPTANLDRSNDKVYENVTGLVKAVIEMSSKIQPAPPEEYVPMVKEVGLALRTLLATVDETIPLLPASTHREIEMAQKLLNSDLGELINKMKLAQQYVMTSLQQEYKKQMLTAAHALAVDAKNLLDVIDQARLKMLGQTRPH
experimentNotes: Cell-based capture ELISA for inhibition of FAK autophosphorylation [pY397] in U87MG cells
studyConditions: 50% (v/v) mouse plasma, mean IC50, read-out: FAK Activity Mechanistic (U87MG) MP
pIC50: −log10 of the molar value.
pIC50 overview

compound="CCOP1(=O)Cc2cc(OC)c(cc2Cl)Nc2ncc(C(F)(F)F)c(n2)Nc2ccc(nc2C(=O)NC)-c2cnn(c2)CCCO1 (single isomer, unassigned) [Example 56A]" recordedvalue="5.40 to 6.40"
compound="CCOP1(=O)Cc2ccc(c(OC)c2)Nc2ncc(C(F)(F)F)c(n2)Nc2ccc(nc2C(=O)NC)-c2cn(nc2Cl)CCCO1 (single isomer, unassigned) [Example 49A]" recordedvalue="5.40 to 6.40"
compound="CCP1(=O)Cc2ccc(c(OC)c2)Nc2ncc(C(F)(F)F)c(n2)Nc2ccc(nc2C(=O)NC)-c2cnn(c2)CC2(CC2)CO1 (racemic)" recordedvalue="> 6.40"
compound="CCOP1(=O)Cc2ccc(c(Cl)c2)Nc2ncc(C(F)(F)F)c(n2)Nc2ccc(nc2C(=O)NC)-c2cnn(c2)CCCO1 (single isomer, unassigned) [Example 24A]" recordedvalue="5.40 to 6.40"
compound="CNC(=O)c1nc2ccc1Nc1nc(ncc1C(F)(F)F)Nc1ccc(cc1OC)CP(=O)(OC(C)C)OCCCn1cc-2cn1 (single isomer, unassigned) [Example 72A]" recordedvalue="> 6.40"
compound="CCCP1(=O)Cc2ccc(c(OC)c2)Nc2ncc(C(F)(F)F)c(n2)Nc2ccc(nc2C(=O)NC)-c2cnn(c2)CCCO1 (racemic) [Example 37]" recordedvalue="5.40 to 6.40"
compound="CCO[P@@]1(=O)Cc2ccc(c(OC)c2)Nc2ncc(C(F)(F)F)c(n2)Nc2cc(F)c(cc2C(=O)NC)-c2cnn(c2)CCCO1.CCO[P@]1(=O)Cc2ccc(c(OC)c2)Nc2ncc(C(F)(F)F)c(n2)Nc2cc(F)c(cc2C(=O)NC)-c2cnn(c2)CCCO1 (mixture of isomers)" recordedvalue="> 6.40"
compound="CCOP1(=O)Cc2ccc(c(OC)c2)Nc2ncc(C(F)(F)F)c(n2)Nc2ccc(c(Cl)c2C(=O)NC)-c2cnn(c2)CCCO1 (racemic)" recordedvalue="< 5.40"
compound="CCOP1(=O)Cc2ccc(c(OC)c2)Nc2ncc(C(F)(F)F)c(n2)Nc2ccc(nc2C(=O)NC)-c2cnn(c2)CC[C@H](C)O1 (mixture of isomers)" recordedvalue="5.40 to 6.40"
compound="CNC(=O)c1nc2ccc1Nc1nc(ncc1C(F)(F)F)Nc1ccc(cc1OC)CP(C)(=O)OCCCn1cc-2cn1 (single isomer, unassigned) [Example 61A]" recordedvalue="> 6.40"

Sample CCOP1(=O)Cc2ccc(c(OC)c2)Nc2ncc(C(F)(F)F)c(n2)Nc2ccc(nc2C(=O)NC)-c2cn(nc2Cl)CCCO1 (racemic) [Example 49] , system: FAK (Homo sapiens, UniProt Q05397). Its pIC50 is 5.40 to 6.40
